# procedure-summary: protein stability index of a GFP-peptide fusion (yeast GPS) (PSI 1-4); higher = more stable; sorted into four equal gates, so the index is relative within each strain
# run-conditions: pdr5∆
readout-name: protein stability index
Just the number, please.

Please report the recorded protein stability index for SPKPYAVKYGLNHVVSL [RPL8B] .
2.09

Bench note: what protein stability index did GLIAARRTGLLRGSQKT [RPL2A] show?
3.08

// protein stability index lookup, key: SSISWKNIAQCLSDYTK [YJL039C/NUP192]
2.11

Which value of protein stability index has been reported for SNASQMGNTGSGGYDNA [RPB3] in the records?
3.32

What does the data say about its protein stability index? Entry: VLEYLAAEILELAGNAA [HTA1]
2.44

Recorded protein stability index of VISFGQPKLNPMASSSS [SWI1] , please.
1.92

Endpoint output: protein stability index of ERNNIGEICKNYELEKI [YDL116W/NUP84] . Value?
2.82

I am curious: what protein stability index value has been reported for DKFFNEVNKSELYLTAE [SIR3] ?
3.55

Further cases:
Record request: protein stability index value, item ILSNVDLAMANSLRRVM [RPB3]
2.54

Form field: reported protein stability index of RYLTLLSNEFTATNSKG [ECM29]
2.76

I would be grateful if you could share the reported protein stability index for QSSGKLKEYLDLVARTA [YDL116W/NUP84] .
2.88

// lookup protein stability index for VQLLLHINSILLARVIQ [SNF11]
1.27

Report protein stability index for LWDQDIAIAGTGQIEGL [COR1] please.
3.37

Which protein stability index reading was recorded for the sequence EYKTSSDSLGPDTSNEI [SRB2] ?
2.47

====

# procedure-summary: protein stability index of a GFP-peptide fusion (yeast GPS) (PSI 1-4); higher = more stable; sorted into four equal gates, so the index is relative within each strain
# run-conditions: ubr1∆
Note to self: class labels come from recorded protein stability index, ranges listed here: lo (below 2), mid (2 to below 3), hi (3 or more)

Please classify: ARDAPTKISTLAVKVHG [QCR2]
lo

Category lookup for the sequence FKGHSHIVQDCTLTADG [ASC1]
lo

Determine which band this sequence sits in: TAIDKNGNITYSEEPRE [FAS2]
hi

Which class holds PSTDKNEKKTETNAKPF [YLR335W/NUP2] ?
hi

Classify this sequence: LNLDSLLVDQKQLNSLR [SMD1]
mid

---
Which protein stability index category applies to KIRRHPNIMLIFGSGFG [FAS1] here?
lo

Band for the recorded protein stability index of LLIISCIIFITFEFINI [YML031W/NDC1] ?
lo

Which bin, given its protein stability index, does VISFGQPKLNPMASSSS [SWI1] occupy?
mid

Exam item: assign ATFTSIELTSYESIATY [RPN7] to the correct category.
lo

In plain terms, what class is TNILTKVDINADSAVNR [PRP28] ?
hi

Pick a category. Item: LTNILRMMGCVKKQKSA [FAS2]
lo

Exercise: read the entry DKLTRVHDKIWCCRSGS [PRE3] and state which class it falls under.
mid

====

protein stability index listing for selected sequences.
# procedure-summary: protein stability index of a GFP-peptide fusion (yeast GPS) (PSI 1-4); higher = more stable; sorted into four equal gates, so the index is relative within each strain
# run-conditions: ubr1∆
Could you keep your reply to the number by itself?

Data request, read-out protein stability index, for LAPNMQLNGNETFSTSA [SNF2]
2.92

Which value of protein stability index has been reported for KTGITKKDEDEEADEDM [PRE9] in the records?
2.95

Return reported protein stability index; argument: INESAENFSNGISLVME [MED1]
3.1

Need protein stability index of KLPLLNESLIPLINLAL [YML103C/NUP188] , thanks.
1.98

Find the recorded protein stability index belonging to KDIKANLSSNVNFTEIG [YCS4] and report it.
2.77

Would you mind telling me what protein stability index value was observed for SLEGCVEMAWIMGFISY [FAS2] ?
2.27

Fill blank: measured protein stability index of the sequence QDRQQLLPLVVSNISCL [ECM29] is ____.
1.29

Can you look up the measured protein stability index of RTWYESFCGFLLYYIPS [YJR042W/NUP85] for me?
1.99
